System Under Test: New Delhi metallo-β-lactamase-1 (NDM-1) (Escherichia coli, UniProt E5KIY2)
Construct: His-tagged protein (pET28a), ndm-1 from E. coli ZC-YN3
Sequence (E5KIY2 29-270 limits assumed): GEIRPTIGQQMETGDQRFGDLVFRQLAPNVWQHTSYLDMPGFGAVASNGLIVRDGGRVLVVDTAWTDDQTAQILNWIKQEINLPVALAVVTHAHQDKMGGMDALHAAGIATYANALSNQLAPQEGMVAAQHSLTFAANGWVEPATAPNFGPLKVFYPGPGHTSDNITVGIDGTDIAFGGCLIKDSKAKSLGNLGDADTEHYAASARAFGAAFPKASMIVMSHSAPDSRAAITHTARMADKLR
Experiment: nitrocefin hydrolysis inhibition assay with purified enzyme
Reported Metric: IC50 (µM)

| Compound | Reported Metric | Number |
| --- | --- | --- |
| O=C(/C=C/c1ccc(O[C@@H]2O[C@H](CO)[C@@H](O)[C@H](O)[C@H]2O)cc1)c1ccc(O)cc1O [isoliquiritin] | IC50 | 92.3 |
